Form field: inhibition (one value per entry).
# testedOn: Quinolone resistance protein NorA (Staphylococcus aureus)
# measurementNotes: Inhibition of norA-mediated ethidium bromide efflux in methicillin-resistant Staphylococcus aureus SA-1199B at 2.5 ug/ml by spectrofluorometric analysis
propertyName: inhibition (%)

compound	testedOn	unitsLabel	value
CN(C)CCOc1ccc(C(=O)/C=C/c2ccc(N(C)C)cc2)cc1	Quinolone resistance protein NorA (Staphylococcus aureus)	%	48
COC(=O)[C@H]1[C@H]2C[C@@H]3c4[nH]c5cc(OC)ccc5c4CCN3C[C@H]2C[C@@H](OC(=O)c2cc(OC)c(OC)c(OC)c2)[C@@H]1OC [RESERPINE]	Quinolone resistance protein NorA (Staphylococcus aureus)	%	30
CN(C)CCOc1ccc(C(=O)/C=C/c2ccccc2F)cc1	Quinolone resistance protein NorA (Staphylococcus aureus)	%	33.7
COc1ccc(OC)c(/C=C/C(=O)c2ccc(O)cc2)c1	Quinolone resistance protein NorA (Staphylococcus aureus)	%	23.3
COc1ccc(/C=C/C(=O)c2ccc(O)cc2)cc1OC	Quinolone resistance protein NorA (Staphylococcus aureus)	%	14
C=CCOc1ccccc1C(=O)/C=C/c1ccc(OCC(=O)O)cc1	Quinolone resistance protein NorA (Staphylococcus aureus)	%	14.7
COc1ccc(/C=C/C(=O)c2ccc(O)cc2)c(OC)c1	Quinolone resistance protein NorA (Staphylococcus aureus)	%	17.3
CN(C)CCOc1ccc(C(=O)/C=C/c2ccccc2)cc1	Quinolone resistance protein NorA (Staphylococcus aureus)	%	21.8
COc1cccc(/C=C/C(=O)c2ccc(O)cc2)c1OC	Quinolone resistance protein NorA (Staphylococcus aureus)	%	11.7
COc1cc(O)cc(C)c1/C=C/C(=O)c1ccc(O)cc1	Quinolone resistance protein NorA (Staphylococcus aureus)	%	36.6
CN(C)CCOc1ccc(C(=O)/C=C/c2ccc(Oc3ccccc3)cc2)cc1	Quinolone resistance protein NorA (Staphylococcus aureus)	%	43.4

====

Reported inhibition values for a set of compounds
# testedOn: Quinolone resistance protein NorA (Staphylococcus aureus)
# Sequence (whole entry): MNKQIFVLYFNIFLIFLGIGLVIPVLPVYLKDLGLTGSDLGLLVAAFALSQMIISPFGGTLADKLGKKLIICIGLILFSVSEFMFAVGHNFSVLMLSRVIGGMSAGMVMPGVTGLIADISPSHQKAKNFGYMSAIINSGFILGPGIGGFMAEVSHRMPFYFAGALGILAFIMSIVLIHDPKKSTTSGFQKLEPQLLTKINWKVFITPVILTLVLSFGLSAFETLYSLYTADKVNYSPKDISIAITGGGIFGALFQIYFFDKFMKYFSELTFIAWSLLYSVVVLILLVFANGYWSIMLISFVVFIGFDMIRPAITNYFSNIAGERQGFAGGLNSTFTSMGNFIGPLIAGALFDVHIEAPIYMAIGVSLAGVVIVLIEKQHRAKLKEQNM
# measurementNotes: Inhibition of norA-mediated ethidium bromide efflux in methicillin-resistant Staphylococcus aureus SA-1199B at 20 ug/ml by spectrofluorometric analysis
propertyName: inhibition

entrySmiles	propertyName	value
COc1ccc(/C=C/C(=O)c2ccc(O)cc2)c(OC)c1	inhibition	89.6%
COc1ccc(OC)c(/C=C/C(=O)c2ccc(O)cc2)c1	inhibition	91%
CN(C)CCOc1ccc(C(=O)/C=C/c2ccc(N(C)C)cc2)cc1	inhibition	98.7%
C=CCOc1ccccc1C(=O)/C=C/c1ccc(OCC(=O)O)cc1	inhibition	87.1%
COc1cccc(/C=C/C(=O)c2ccc(O)cc2)c1OC	inhibition	90.8%
CN(C)CCOc1ccc(C(=O)/C=C/c2ccccc2)cc1	inhibition	83.6%
COc1cc(O)cc(C)c1/C=C/C(=O)c1ccc(O)cc1	inhibition	91.7%
CN(C)CCOc1ccc(C(=O)/C=C/c2ccc(Oc3ccccc3)cc2)cc1	inhibition	99.1%
COc1ccc(/C=C/C(=O)c2ccc(O)cc2)cc1OC	inhibition	87.9%
CN(C)CCOc1ccc(C(=O)/C=C/c2ccccc2F)cc1	inhibition	97%

====

# testedOn: Quinolone resistance protein NorA (Staphylococcus aureus) (UniProt P0A0J7)
# measurementNotes: Inhibition of norA-mediated ethidium bromide efflux in methicillin-resistant Staphylococcus aureus SA-1199B at 5 ug/ml by spectrofluorometric analysis
# inhibition annotations

entrySmiles	unitsLabel	inhibition
COC(=O)[C@H]1[C@H]2C[C@@H]3c4[nH]c5cc(OC)ccc5c4CCN3C[C@H]2C[C@@H](OC(=O)c2cc(OC)c(OC)c(OC)c2)[C@@H]1OC	%	48.1
COc1cc(O)cc(C)c1/C=C/C(=O)c1ccc(O)cc1	%	63.7
COc1ccc(OC)c(/C=C/C(=O)c2ccc(O)cc2)c1	%	56.6
C=CCOc1ccccc1C(=O)/C=C/c1ccc(OCC(=O)O)cc1	%	46.2
COc1cccc(/C=C/C(=O)c2ccc(O)cc2)c1OC	%	38
CN(C)CCOc1ccc(C(=O)/C=C/c2ccc(N(C)C)cc2)cc1	%	96.5
CN(C)CCOc1ccc(C(=O)/C=C/c2ccc(Oc3ccccc3)cc2)cc1	%	68.8
COc1ccc(/C=C/C(=O)c2ccc(O)cc2)c(OC)c1	%	24.1
CN(C)CCOc1ccc(C(=O)/C=C/c2ccccc2F)cc1	%	48.5
COc1ccc(/C=C/C(=O)c2ccc(O)cc2)cc1OC	%	38.3
CN(C)CCOc1ccc(C(=O)/C=C/c2ccccc2)cc1	%	36.1
